target.of.assay: T1, B7-H2mIg (extracellular domain of human B7-H2 linked to mouse IgG2a Fc portion) (human, UniProt O75144 19-256)
T1 sequence: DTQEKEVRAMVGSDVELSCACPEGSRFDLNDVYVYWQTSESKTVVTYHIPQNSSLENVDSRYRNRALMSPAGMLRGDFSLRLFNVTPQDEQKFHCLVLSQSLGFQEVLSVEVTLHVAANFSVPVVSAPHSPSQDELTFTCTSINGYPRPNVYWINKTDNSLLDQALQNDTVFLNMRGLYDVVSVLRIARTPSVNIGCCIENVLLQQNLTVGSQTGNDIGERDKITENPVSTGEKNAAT
assay.text: ELISA
property.measured: percentage of B7-H2 binding activity (of ICOSIg)

ICOSIg mutant K67S (Fc fusion) EINGSANYEMFIFHNGGVQILCKYPDIVQQFKMQLLKGGQILCDLTSTKGSGNTVSIKSLKFCHSQLSNNSVSFFLYNLDHSHANYYFCNLSIFDPPPFKVTLTGGYLHIYESQLCCQLK
< 0.1%
ICOSIg mutant F114S (Fc fusion) EINGSANYEMFIFHNGGVQILCKYPDIVQQFKMQLLKGGQILCDLTKTKGSGNTVSIKSLKFCHSQLSNNSVSFFLYNLDHSHANYYFCNLSISDPPPFKVTLTGGYLHIYESQLCCQLK
< 0.1%
ICOSIg homologue replacement mutant RP49-52 (ICOS 49-52 replaced by CD28 49-52) (Fc fusion) EINGSANYEMFIFHNGGVQILCKYPDIVREFRMQLLKGGQILCDLTKTKGSGNTVSIKSLKFCHSQLSNNSVSFFLYNLDHSHANYYFCNLSIFDPPPFKVTLTGGYLHIYESQLCCQLK
9%
ICOSIg mutant F51S (Fc fusion) EINGSANYEMFIFHNGGVQILCKYPDIVQQSKMQLLKGGQILCDLTKTKGSGNTVSIKSLKFCHSQLSNNSVSFFLYNLDHSHANYYFCNLSIFDPPPFKVTLTGGYLHIYESQLCCQLK
< 0.1%

In the following, a different binder is considered.
Give the measured percentage of B7-H2 binding activity (of ICOSIg) of ICOSIg mutant K69S (Fc fusion) EINGSANYEMFIFHNGGVQILCKYPDIVQQFKMQLLKGGQILCDLTKTSGSGNTVSIKSLKFCHSQLSNNSVSFFLYNLDHSHANYYFCNLSIFDPPPFKVTLTGGYLHIYESQLCCQLK .
3%
